The measurements presented in this section are drawn from paper PMC2654417.

- target: glucocorticoid receptor (GR) (Homo sapiens)
- Sequence (P04150 1-777): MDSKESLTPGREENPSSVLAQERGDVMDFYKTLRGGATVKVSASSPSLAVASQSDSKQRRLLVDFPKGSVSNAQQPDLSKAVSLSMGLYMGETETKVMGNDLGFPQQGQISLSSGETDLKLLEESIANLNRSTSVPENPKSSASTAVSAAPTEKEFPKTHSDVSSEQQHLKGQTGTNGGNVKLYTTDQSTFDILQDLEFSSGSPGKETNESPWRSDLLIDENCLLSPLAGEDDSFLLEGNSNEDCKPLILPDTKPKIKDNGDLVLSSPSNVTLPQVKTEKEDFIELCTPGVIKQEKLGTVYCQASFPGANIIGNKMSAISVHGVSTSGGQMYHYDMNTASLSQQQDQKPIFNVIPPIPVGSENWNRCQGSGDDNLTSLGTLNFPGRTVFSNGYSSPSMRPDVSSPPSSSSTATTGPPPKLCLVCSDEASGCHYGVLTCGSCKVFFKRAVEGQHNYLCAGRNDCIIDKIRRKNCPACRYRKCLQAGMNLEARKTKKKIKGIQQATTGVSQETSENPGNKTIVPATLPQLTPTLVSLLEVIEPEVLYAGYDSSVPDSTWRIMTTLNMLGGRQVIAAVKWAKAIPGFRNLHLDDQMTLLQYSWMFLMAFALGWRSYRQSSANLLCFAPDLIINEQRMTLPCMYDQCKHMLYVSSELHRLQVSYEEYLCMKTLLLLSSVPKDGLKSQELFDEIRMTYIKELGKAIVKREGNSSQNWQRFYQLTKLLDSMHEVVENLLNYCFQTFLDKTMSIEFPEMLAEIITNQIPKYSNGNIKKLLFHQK
- test-name: GR-EFC nuclear translocation assay
- Type: cell-based
- study-conditions: maximal activity of the qHTS curve; inactive threshold […] (3σ)
experimental-readout: qHTS Max Activity

# chem-smiles, qHTS Max Activity
measured = [
    ("CC(=O)OCC(=O)[C@@]1(O)CC[C@@H]2[C@H]3CCC4=CC(=O)CC[C@]4(C)[C@]3(F)[C@@H](O)C[C@@]21C", 74.0),
    ("CC(=O)[C@@]1(O)CC[C@@H]2[C@@H]3CCC4=CC(=O)CC[C@@]4(C)[C@H]3CC[C@]21C", 100.0),
    ("CC(=O)OCC(=O)[C@@]1(O)CC[C@H]2[C@@H]3CCC4=CC(=O)C=C[C@]4(C)[C@@]3(F)[C@@H](O)C[C@@]21C", 80.8),
]
